Tested on: Skov3 (Muc16−)
ASSAY: In vitro cytotoxicity (Cell Titer-Glo, 120 hrs) on Skov3 cells
Format: cell-based
SETUP_CONDITIONS: Homo sapiens, SK-OV-3, Table 7, Experiment #2, read-out: Cell Killing on Skov3 (Muc16−) EC50

# QUERY_SMILES, EC50
records = [
    ("CCCCc1nc2c(N)nc3ccccc3c2n1Cc1ccc(CN)cc1", "> 100 nM"),
]
